Ref: ChEMBL document CHEMBL1201862

# System: SK-MEL-2
# Experiment Summary: NCI tumour cell line growth inhibition, 48 h
Calls of active or inactive are those of the source. No stated cut-off is given here; in the data, active = GI50 up to about 1.1 µM and inactive = higher.
Measurement Type: GI50

Can you look up the measured GI50 of CCN(CC)CCNC(=O)c1cn2c(ccc3sc4ccccc4c(=O)c32)n1 for me?
21 µM (inactive)

Can you look up the measured GI50 of N#Cc1c(O)n(-c2ccccc2)c(=O)c2c(N)n[nH]c12 for me?
> 100 µM (inactive)

Can you look up the measured GI50 of COC(=O)C1=C(C)N2CCSC2(C)C(C(=O)OC)C1c1cccc(Cl)c1 (stereo not drawn) for me?
17.7 µM (inactive)

---

# System: RXF 393
# Experiment Summary: NCI tumour cell line growth inhibition, 48 h
The source made the active and inactive calls. No stated cut-off is given here; in the data, active = GI50 up to about 1.1 µM and inactive = higher.
Assignment: determine reported GI50 for the given compounds.

Can you look up the measured GI50 of CCC1(CC)CC(=NNS(=O)(=O)c2ccc(C)cc2)C1 for me?
> 100 µM (inactive)

Can you look up the measured GI50 of Nc1nc(Cl)c(N)c(NCC2(CO)CC(Cc3ccccc3)C2)n1 (stereo unspecified) for me?
> 42.6 µM (inactive)

Can you look up the measured GI50 of CC(=O)NC(CCC(=O)C=[N+]=[N-])C(=O)O (stereo unspecified) for me?
> 100 µM (inactive)

Can you look up the measured GI50 of COC(=O)c1cc(C#N)[nH]c1-c1ccsc1 for me?
72.4 µM (inactive)

Can you look up the measured GI50 of O=C1C(F)=CC(COC(c2ccccc2)(c2ccccc2)c2ccccc2)OC1n1cc(F)c(=O)[nH]c1=O (stereo unspecified) for me?
1.96 µM (inactive)

Can you look up the measured GI50 of COC(=O)C1(SC)C2CCC3C2CCC31 (stereo unspecified) for me?
> 100 µM (inactive)

Can you look up the measured GI50 of Cc1cccc(NC(N)=S)c1 for me?
> 100 µM (inactive)

Can you look up the measured GI50 of Cc1cc(=O)n2nc(CSc3nnc(Sc4cc(O)ccc4O)s3)sc2n1 for me?
51.6 µM (inactive)

Can you look up the measured GI50 of CC1CC(=O)Nc2nc3ccccc3n21 (stereo unspecified) for me?
> 100 µM (inactive)

Can you look up the measured GI50 of CN1C/C(=C\c2cccs2)C(=O)/C(=C/c2cccs2)C1 for me?
20.3 µM (inactive)

Can you look up the measured GI50 of COc1cc(CNc2nc3c(NC(C)=O)cc(C(F)(F)F)cc3nc2-c2ccccc2)cc(OC)c1OC for me?
90.4 µM (inactive)

---

# System: NCI-H522
# Experiment Summary: NCI tumour cell line growth inhibition, 48 h
Calls of active or inactive are those of the source. Cut-off read from the data, not from the text of the source: active = GI50 up to about 1.1 µM and inactive = higher.
Respond with a class label; see label 1 for active, label 0 for inactive

For O=C1CC2(CCN(Cc3ccccc3)CC2)C(=O)N1N1CCCCC1 , what call appears in the results of this test?
label 0

For [O-][S+]1c2ccccc2N=C(c2cccc3ccccc23)CC1c1cccc2ccccc12 (centres undefined) , what call appears in the results of this test?
label 0

For C/C(=N\Nc1nc2ccccc2s1)c1cnccn1 , what call appears in the results of this test?
label 1

For COC(=O)C1C(OS(=O)(=O)O)CCC2CN3CCc4c([nH]c5ccccc45)C3CC21 (centres undefined) , what call appears in the results of this test?
label 0

For CS(=O)(=O)c1c(N)c2nc(Cl)cn2c2nc3ccccc3nc12 , what call appears in the results of this test?
label 0

For COc1ccc(C(OCC2OC(n3cnc4c(=O)n(Cc5ccccc5[N+](=O)[O-])nnc43)C(O)C2O)(c2ccccc2)c2ccc(OC)cc2)cc1 (centres undefined) , what call appears in the results of this test?
label 0

For CCOC(=O)[C@@]12NN=N[C@@H]1[C@H]1CO[C@H](c3ccccc3)N1C2=O , what call appears in the results of this test?
label 0

For O=C(NN=C1NCCCN1)c1ccco1 , what call appears in the results of this test?
label 0

For Cc1cc(C)c(-n2c(-c3ccc(Br)cc3)cs/c2=N\N=C2C=C(C(C)(C)C)C(=O)C(C(C)(C)C)=C2)c(C)c1 , what call appears in the results of this test?
label 0
